src = the supplement of paper PMC10307832

Tested on: NCI-H1651
Experiment: relative viability (nuclei count vs DMSO), 5 days (fraction); higher = more cells survive
Details: first compound 0.1265 µM
quantity.measured: relative viability

compound | quantity.measured | reading
COc1cc(N2CCC(C(N)=O)CC2)ccc1Nc1nc(N)c(Cl)c(Nc2ccccc2S(=O)(=O)C(C)C)n1 [HG-5-88-01] + Cc1cc(Nc2cc(N3CCN(C)CC3)nc(Sc3ccc(NC(=O)C4CC4)cc3)n2)n[nH]1 [Tozasertib] (partner 0.1 µM) | relative viability | 0.745
COc1cc(N2CCC(C(N)=O)CC2)ccc1Nc1nc(N)c(Cl)c(Nc2ccccc2S(=O)(=O)C(C)C)n1 [HG-5-88-01] + CS(=O)(=O)CCNCc1ccc(-c2ccc3ncnc(Nc4ccc(OCc5cccc(F)c5)c(Cl)c4)c3c2)o1 [Lapatinib] (partner 2 µM) | relative viability | 1
Clc1ccc(Nc2nnc(Cc3ccncc3)c3ccccc23)cc1 [Vatalanib] + CC1(C)CCC(c2ccc(Cl)cc2)=C(CN2CCN(c3ccc(C(=O)NS(=O)(=O)c4ccc(N[C@H](CCN5CCOCC5)CSc5ccccc5)c(S(=O)(=O)C(F)(F)F)c4)cc3)CC2)C1 [Navitoclax] (partner 0.5 µM) | relative viability | 1.09
COc1cc(N2CCC(C(N)=O)CC2)ccc1Nc1nc(N)c(Cl)c(Nc2ccccc2S(=O)(=O)C(C)C)n1 [HG-5-88-01] + COc1cc2c(Oc3ccc(NC(=O)C4(C(=O)Nc5ccc(F)cc5)CC4)cc3F)ccnc2cc1OCCCN1CCOCC1 [Foretinib] (partner 0.25 µM) | relative viability | 0.922
C[C@@H]1CN(CC(=O)Nc2ccc3c(c2)Cc2cccc(-c4cc(=O)cc(N5CCOCC5)o4)c2S3)C[C@H](C)O1 + Cc1nc(NC(=O)N2CCC[C@H]2C(N)=O)sc1-c1ccnc(C(C)(C)C(F)(F)F)c1 [Alpelisib] (partner 2 µM) | relative viability | 0.923
Clc1ccc(Nc2nnc(Cc3ccncc3)c3ccccc23)cc1 [Vatalanib] + C[C@@H](Oc1cc(-c2cnn(C3CCNCC3)c2)cnc1N)c1c(Cl)ccc(F)c1Cl [Crizotinib] (partner 1 µM) | relative viability | 0.839
C[C@@H]1CN(CC(=O)Nc2ccc3c(c2)Cc2cccc(-c4cc(=O)cc(N5CCOCC5)o4)c2S3)C[C@H](C)O1 + Nc1ncn([C@H]2C[C@H](O)[C@@H](CO)O2)c(=O)n1 [Decitabine] (partner 2 µM) | relative viability | 0.628
C[C@@H]1CN(CC(=O)Nc2ccc3c(c2)Cc2cccc(-c4cc(=O)cc(N5CCOCC5)o4)c2S3)C[C@H](C)O1 + Cc1nc(Nc2ncc(C(=O)Nc3c(C)cccc3Cl)s2)cc(N2CCN(CCO)CC2)n1 [Dasatinib] (partner 0.075 µM) | relative viability | 0.411

* * *

Test system: NCI-H23
Assay: relative viability (nuclei count vs DMSO), 5 days (fraction); higher = more cells survive
Conditions: first compound 8 µM
The following compounds are listed with their measured relative viability values.

compound | relative viability
CCCCCCCCCCCC1=C(O)C(=O)C=C(O)C1=O [Embelin] + CC(=O)c1c(C)c2cnc(Nc3ccc(N4CCNCC4)cn3)nc2n(C2CCCC2)c1=O [Palbociclib] (partner 0.5 µM) | 0.594
CCCCCCCCCCCC1=C(O)C(=O)C=C(O)C1=O [Embelin] + O=C(CCCCCCC(=O)Nc1ccccc1)NO [Vorinostat] (partner 1 µM) | 0.433
CCCCCCCCCCCC1=C(O)C(=O)C=C(O)C1=O [Embelin] + C[C@@H](Oc1cc(-c2cnn(C3CCNCC3)c2)cnc1N)c1c(Cl)ccc(F)c1Cl [Crizotinib] (partner 1 µM) | 0.705
CCCCCCCCCCCC1=C(O)C(=O)C=C(O)C1=O [Embelin] + Cc1nc(Nc2ncc(C(=O)Nc3c(C)cccc3Cl)s2)cc(N2CCN(CCO)CC2)n1 [Dasatinib] (partner 0.075 µM) | 0.612
CCCCCCCCCCCC1=C(O)C(=O)C=C(O)C1=O [Embelin] + COc1cccc2cc(-c3nc([C@H]4CC[C@H](C(=O)O)CC4)n4ncnc(N)c34)[nH]c12 [OSI-027] (partner 0.5 µM) | 0.562
CCCCCCCCCCCC1=C(O)C(=O)C=C(O)C1=O [Embelin] + CC(C)C[C@H](NC(=O)[C@H](Cc1ccccc1)NC(=O)c1cnccn1)B(O)O [Bortezomib] (partner 0.002 µM) | 1.23

* * *

Test system: NCI-H647
Assay: relative viability (nuclei count vs DMSO), 5 days (fraction); higher = more cells survive
Conditions: first compound 0.08 µM
Overview of reported relative viability across a group of compounds:

compound | subject.of.test | relative viability
CCCCCCCCCCCC1=C(O)C(=O)C=C(O)C1=O [Embelin] + CCNC(=O)c1noc(-c2cc(C(C)C)c(O)cc2O)c1-c1ccc(CN2CCOCC2)cc1 [Luminespib] (partner 0.01 µM) | NCI-H647 | 0.233
CCCCCCCCCCCC1=C(O)C(=O)C=C(O)C1=O [Embelin] + N=C(N)NC(=N)NCCc1ccccc1 [Phenformin] (partner 250 µM) | NCI-H647 | 0.632
CCCCCCCCCCCC1=C(O)C(=O)C=C(O)C1=O [Embelin] + NC(=O)Nc1cc(-c2cccc(F)c2)sc1C(=O)N[C@H]1CCCNC1 [AZD7762] (partner 0.2 µM) | NCI-H647 | 0.379
CCCCCCCCCCCC1=C(O)C(=O)C=C(O)C1=O [Embelin] + Cc1nc(Nc2ncc(C(=O)Nc3c(C)cccc3Cl)s2)cc(N2CCN(CCO)CC2)n1 [Dasatinib] (partner 0.075 µM) | NCI-H647 | 0.214
CCCCCCCCCCCC1=C(O)C(=O)C=C(O)C1=O [Embelin] + CC(=O)c1c(C)c2cnc(Nc3ccc(N4CCNCC4)cn3)nc2n(C2CCCC2)c1=O [Palbociclib] (partner 0.5 µM) | NCI-H647 | 0.405
CCCCCCCCCCCC1=C(O)C(=O)C=C(O)C1=O [Embelin] + COc1cccc2cc(-c3nc([C@H]4CC[C@H](C(=O)O)CC4)n4ncnc(N)c34)[nH]c12 [OSI-027] (partner 0.5 µM) | NCI-H647 | 0.684

* * *

Test system: NCI-H647
Assay: relative viability (nuclei count vs DMSO), 5 days (fraction); higher = more cells survive
Conditions: first compound 0.01 µM

molecule | relative viability
CC(C)Oc1cc(Nc2nc(N[C@@H](C)c3ccc(F)cn3)ncc2Cl)n[nH]1 [AZ23] + Nc1nc2[nH]cc(CCc3ccc(C(=O)N[C@@H](CCC(=O)O)C(=O)O)cc3)c2c(=O)[nH]1 [Pemetrexed] (partner 0.2 µM) | 0.151
CC(C)Oc1cc(Nc2nc(N[C@@H](C)c3ccc(F)cn3)ncc2Cl)n[nH]1 [AZ23] + Nc1ncn([C@H]2C[C@H](O)[C@@H](CO)O2)c(=O)n1 [Decitabine] (partner 2 µM) | 0.364
CC(C)Oc1cc(Nc2nc(N[C@@H](C)c3ccc(F)cn3)ncc2Cl)n[nH]1 [AZ23] + NC(=O)Nc1cc(-c2cccc(F)c2)sc1C(=O)N[C@H]1CCCNC1 [AZD7762] (partner 0.2 µM) | 0.296
CC(C)Oc1cc(Nc2nc(N[C@@H](C)c3ccc(F)cn3)ncc2Cl)n[nH]1 [AZ23] + CC(=O)Nc1cccc(-n2c(=O)n(C3CC3)c(=O)c3c(Nc4ccc(I)cc4F)n(C)c(=O)c(C)c32)c1 [Trametinib] (partner 0.02 µM) | 0.61

* * *

Tested on: PC-14
Test: relative viability (nuclei count vs DMSO), 5 days (fraction); higher = more cells survive
Conditions: first compound 0.8 µM
Doc: threshold 0.9 (exclusive). Items with relative viability beneath it return t; others return f.

compound | class.label
CCCCCCCCCCCC1=C(O)C(=O)C=C(O)C1=O [Embelin] + Cc1cc(Nc2cc(N3CCN(C)CC3)nc(Sc3ccc(NC(=O)C4CC4)cc3)n2)n[nH]1 [Tozasertib] (partner 0.1 µM) | t
CCCCCCCCCCCC1=C(O)C(=O)C=C(O)C1=O [Embelin] + C[C@]1(O)C[C@@H](c2nc(-c3ccc4ccc(-c5ccccc5)nc4c3)c3c(N)nccn32)C1 [Linsitinib] (partner 1 µM) | f
CCCCCCCCCCCC1=C(O)C(=O)C=C(O)C1=O [Embelin] + Cc1nc(NC(=O)N2CCC[C@H]2C(N)=O)sc1-c1ccnc(C(C)(C)C(F)(F)F)c1 [Alpelisib] (partner 2 µM) | f

* * *

Test system: H3255
Test: relative viability (nuclei count vs DMSO), 5 days (fraction); higher = more cells survive
Conditions: first compound 1.265 µM
Measured relative viability, listed per entry.
quantity.measured: relative viability

compound | subject.of.test | reading
Clc1ccc(Nc2nnc(Cc3ccncc3)c3ccccc23)cc1 [Vatalanib] + O=C(c1cc(Cc2n[nH]c(=O)c3ccccc23)ccc1F)N1CCN(C(=O)C2CC2)CC1 [Olaparib] (partner 8 µM) | H3255 | 0.576
Clc1ccc(Nc2nnc(Cc3ccncc3)c3ccccc23)cc1 [Vatalanib] + CCNC(=O)c1noc(-c2cc(C(C)C)c(O)cc2O)c1-c1ccc(CN2CCOCC2)cc1 [Luminespib] (partner 0.01 µM) | H3255 | 0.743
Clc1ccc(Nc2nnc(Cc3ccncc3)c3ccccc23)cc1 [Vatalanib] + Cc1nc(NC(=O)N2CCC[C@H]2C(N)=O)sc1-c1ccnc(C(C)(C)C(F)(F)F)c1 [Alpelisib] (partner 2 µM) | H3255 | 0.705
Clc1ccc(Nc2nnc(Cc3ccncc3)c3ccccc23)cc1 [Vatalanib] + CC(C)C[C@H](NC(=O)[C@H](Cc1ccccc1)NC(=O)c1cnccn1)B(O)O [Bortezomib] (partner 0.002 µM) | H3255 | 0.47
